Test Method Notes: NCI Yeast Anticancer Drug Screen. Data for the bub3 strain (AID 167)
Measurement Parameters: S. cerevisiae bub3 mutant strain, at 50.0 µM
Compounds without any hit were thinned out: in the full panel of roughly 79,000, 15% have a hit. The source made the active and inactive calls. Cut-off read from the data, not from the text of the source: active = growth inhibition above about 70%; inactive = the rest.
Outcome codes: true (1) = active, false (0) = inactive

> print(dat)
                                    molecule  answer.label
 1  Cc1ccc(N=c2cc(-c3ccccc3)oc3ccccc23)c(C)c1     false (0)
 2                 CC(=O)N1CCC(Cc2ccccc2)CC1     false (0)
 3  Cc1c(C2CC(=O)NC2=O)c2ccccc2n1C (configuration not stated)     false (0)
 4          COc1ccc(/C=C(\C#N)c2ccccc2)cc1OC      true (1)
 5          N#Cc1c(Cl)nc2ccccc2c1N=[N+]=[N-]     false (0)
 6  Cc1occc1C(=S)Nc1ccc(Cl)c(C(=O)OC(C)C2CC2)c1 (configuration not stated)      true (1)
 7     CC(C)OC(=O)c1ccc(NCc2cc(O)ccc2O)cc1Cl      true (1)
 8     O=c1c(NO)c([N+](=O)[O-])cnn1-c1ccccc1     false (0)
 9          Cc1c(Cl)nc(-c2ccccc2)nc1C(=O)CCl     false (0)
10       O=C(CN(Cc1ccccc1)Cc1ccccc1)c1ccccc1      true (1)
11              O=C1CCCc2cc3c(nc21)C(=O)CCC3     false (0)
12                       CCCCCC(CCCCC)C(=O)O     false (0)
13  C=CCC(O)C(=O)OC1CC(C)CCC1C(C)(C)c1ccccc1 (configuration not stated)      true (1)
14  O=[N+]([O-])c1ccc(N/N=C/COCCO)c([N+](=O)[O-])c1      true (1)
15  CC1N=C(Cc2ccccc2)SC1C (configuration not stated)      true (1)
16  CC(=O)Nc1ccc2c(c1)[nH]c(=O)c1cc(Cl)ccc12     false (0)
17     CN(C)c1ccc(/C=C(\C#N)c2c(F)cccc2F)cc1     false (0)
18         CN(C)CCSc1cc(-c2ccccc2)c2ccccc2n1     false (0)
19  COC(=O)c1[nH]c(=O)c(C#N)c(C(=O)OC)c1C(=O)c1ccc(Cl)c(Cl)c1      true (1)
20  C[CH2][Ge]([CH2]C)([CH2]C)[O]C(=O)C([O][Ge]([CH2]C)([CH2]C)[CH2]C)c1ccccc1 (configuration not stated)      true (1)
21        COCCCNC(=S)N/N=C/c1cc(Cl)cc(Cl)c1O      true (1)
22                   CCCCCCCCCCCC(=O)N1CCCC1      true (1)

* * *

Test Method Notes: NCI Yeast Anticancer Drug Screen. Data for the mec2-1 strain (AID 157)
Measurement Parameters: S. cerevisiae mec2-1 strain, at 5.0 µM (retest, dose inferred, filed as 0.5), stronger effect = higher value
About 79,000 compounds went through this panel and 15% of them were active in at least one assay; those are over-represented in the sample as a whole.
Parameter Measured: growth inhibition (%)

> print(dat)
                                    compound  parameter.measured  readout.value
 1          O=S(=O)(Nc1ccc2ccccc2c1)c1ccccc1   growth inhibition            -21
 2  N#CC(C#N)=C1CCC(CC2CCCCC2)CC1 (stereo not drawn)   growth inhibition            -49
 3  O=C1N[C@H]2[C@H](CS[C@H]2CCCCC(=O)N(CCP(c2ccccc2)c2ccccc2)CCP(c2ccccc2)c2ccccc2)N1   growth inhibition              1
 4  C[N+]12CC3C4CC(C3C1)C2C4 (stereo not drawn)   growth inhibition            -15
 5      COC(=O)c1cc(-c2ccccc2)[nH]c(=O)c1C#N   growth inhibition            -18
 6  O[C@H]1[C@H]2c3cc4c(cc3CN3CCC(=C[C@@H]1O)[C@H]23)OCO4   growth inhibition             19
 7  COc1ccc(C2CC(CO)ON2c2ccccc2)cc1 (stereo not drawn)   growth inhibition            -14
 8    O=S(=O)(O)c1cc2ccccc2c(O)c1N=Nc1ccccc1   growth inhibition             -1
 9  C[CH2][Ge]([CH2]C)([CH2]C)[O]C(=O)C([O][Ge]([CH2]C)([CH2]C)[CH2]C)c1ccccc1 (stereo not drawn)   growth inhibition              6
10  O=C1CC(c2ccccc2)C(=O)N2C(=O)CC(c3ccccc3)C(=O)N12 (stereo not drawn)   growth inhibition              2
11   CC(SCc1ccccc1)C(=O)O (stereo not drawn)   growth inhibition              3
12        O=C1C=CC(=O)N1C1c2ccccc2-c2ccccc21   growth inhibition            100
13  COc1ccccc1/C=C1\S/C(=N/Nc2nc(C)c(C(C)=O)s2)NC1=O   growth inhibition             15
